# ASSAY_NOTES: chemical genetic growth profiling, strain panel (AID 1159580);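 note: tested at 20 µM; growth read once vehicle control cultures reached saturation at 30 °C; 1 = growth at the plate median or of vehicle wells; lower values mean less growth of the strain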
# RUN_CONDITIONS: S. cerevisiae deletion strains, growth OD, locus YHR087W, strain rtc3
Out of some 5,500 compounds screened, about 2,000 (36%) were called active. Not shown: some 18% with an inconclusive outcome. Cut-off read from the data, not from the text of the source: active = normalized growth mostly below about 0.91 (no sharp cut-off); inconclusive = no clear call, values can overlap the other calls; inactive = mostly above about 0.92. The list shows a part of the results.
// allowed return values: active, inactive

Worked cases, answers included:
{"columns": ["COMPOUND", "ASSIGNED_CATEGORY"],
 "data": [
  ["Cn1c(=S)[nH]c2cc(C(F)(F)F)ccc21", "inactive"],
  ["O=S(=O)(c1ccc(Cl)cc1)c1cc(C(F)(F)F)cc(C(F)(F)F)c1", "inactive"],
  ["OCc1nccn1Cc1ccc(Cl)cc1", "inactive"],
  ["Cc1onc(-c2ccccc2Cl)c1C(=O)N1CCCN2C(=O)c3ccccc3C21 (configuration not stated)", "inactive"],
  ["CCc1cccc(C)c1NC(=O)CC(C)(C)CC(=O)O", "inactive"]
]}

What did this assay record as the result for FC(F)(F)c1cc(Cl)c2nsnc2c1 ?
inactive

Same lookup for Nc1ccc(Oc2ccc(Cl)cc2C2CCCCC2)nc1 , please.
active

Same lookup for FC(F)(F)c1ccc2[nH]c(=S)[nH]c2c1 , please.
inactive

Same lookup for COC(=O)c1cscc1Sc1ccc(Cl)cc1 , please.
inactive

Same lookup for CC(C)(C)NC(=S)NC1CCN(Cc2ccccc2)CC1 , please.
inactive

Same lookup for O=S(=O)(NCc1ccc(F)cc1F)c1cccc(C(F)(F)F)c1 , please.
inactive

Same lookup for Cc1nn(-c2ccccc2)nc1-c1nnc(-c2ccc(Cl)cc2)o1 , please.
inactive

###

# ASSAY_NOTES: chemical genetic growth profiling, strain panel (AID 1159580);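 note: tested at 20 µM; growth read once vehicle control cultures reached saturation at 30 °C; 1 = growth at the plate median or of vehicle wells; lower values mean less growth of the strain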
# RUN_CONDITIONS: S. cerevisiae deletion strains, growth OD, locus YDR502C, strain sam2, active compounds read low
Screen size: about 5,500 compounds; about 2,000 (36%) were called active. About 18% were inconclusive and are not listed. This is one part of the list. Where a SMILES comes first, the peptide text is derived from it.
We begin with a simple list: items and their reported normalized growth.
Could you respond with only the numeric value?

{"columns": ["COMPOUND", "VALUE_MEASURED"],
 "data": [
  ["O=C(O)CCCCCCCC(=O)O", 0.986],
  ["NCCCC(=O)O", 1.03]
]}

GET /values?readout=normalized growth&item= CC(=O)N[C@@H](CCC(=O)O)C(=O)O
1.01

Same lookup for CC(=O)N[C@@H](CC(=O)O)C(=O)N[C@@H](CCC(=O)O)C(=O)O (Ac-Asp-Glu-OH) , please.
0.989

###

We begin with a simple list: items and their reported normalized growth.
# ASSAY_NOTES: chemical genetic growth profiling, strain panel (AID 1159580);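 note: tested at 20 µM; growth read once vehicle control cultures reached saturation at 30 °C; 1 = growth at the plate median or of vehicle wells; lower values mean less growth of the strain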
# RUN_CONDITIONS: S. cerevisiae deletion strains, growth OD, locus YLR403W, strain SFP1, active compounds read low
In all, about 5,500 compounds went through this assay and about 2,000 (36%) were called active. Inconclusive results (about 18%) are left out. The list shows a part of the results.
Could you respond with only the numeric value?

Completed entries (count: 3):
{"columns": ["COMPOUND", "normalized growth"],
 "data": [
  ["O=S(=O)(Nc1csc(C(F)(F)F)c1-c1ccccc1)c1cc(Br)c(Br)s1", 0.906],
  ["N#CC(C#N)=Cc1c(-c2ccccc2Cl)[nH]c2ccccc12", 0.904],
  ["CC1CCC(C(C)C)C(N(Cc2ccccc2)C(=O)c2ccccc2)C1 (stereo unspecified)", 0.913]
]}

GET /values?readout=normalized growth&item= COc1ccc(Nc2nc(NC(=O)Nc3ccc(Cl)cc3)n[nH]2)cc1
0.742

Same lookup for Cc1ccc(NC(=S)C(C#N)C(=O)N2CCOCC2)c(C)c1 (stereo unspecified) , please.
0.957

Same lookup for N#Cc1cccc(CSc2nc3ccc(C(F)(F)F)cc3[nH]2)c1 , please.
0.907
